System: 171881-019-R-J1-PDC complex spheroid viability
Test: Anticancer human tumor 171881-019-R-J1-PDC patient-derived invasive breast carcinoma cell line growth inhibition
Conditions: second compound 10 µM; first compound 1 µM; active compounds read low
Provide the reported viability, T/C of each item.
Give bare numbers, in %.

State recorded viability, T/C for all listed compounds.
1. COc1ccc([C@@H](O)c2cc(-c3ncnc4cc(N5CCOCC5)ccc34)c(F)cc2Cl)nn1 + NC1CC1c1ccc(-c2cccc(O)c2)cc1
2. O=C(c1cc(Cc2n[nH]c(=O)c3ccccc23)ccc1F)N1CCN(C(=O)C2CC2)CC1 + NC1CC1c1ccc(-c2cccc(O)c2)cc1
3. COc1cc(Nc2ncc3c(n2)-c2ccc(Cl)cc2C(c2c(F)cccc2OC)=NC3)ccc1C(=O)O + NC1CC1c1ccc(-c2cccc(O)c2)cc1

Reply:
[30.6, 74, 25.3]

---

Kindly supply the reported viability, T/C values for the records listed here.
System: 171881-019-R-J1-PDC complex spheroid viability
Assay: Anticancer human tumor 171881-019-R-J1-PDC cell line growth inhibition;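 also: spheroids exposed to agents for 7 days after 3 days growth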
Details: second compound 0.316 µM; first compound 0.0949 µM; active compounds read low
Answers are plain numbers, in %.

Recorded viability, T/C, per entry:
NS(=O)(=O)OCC1CC(n2ccc3c(NC4CCc5ccccc54)ncnc32)CC1O (stereo not given) + NC1CCC(NC2CC2c2ccccc2)CC1	30.5
Nc1ccn(C2OC(CO)C(O)C2(F)F)c(=O)n1 (stereo not given) + NC1CC1c1ccc(-c2cccc(O)c2)cc1	66.6
CCN(c1cc(-c2ccc(CN3CCOCC3)cc2)cc(C(=O)NCc2c(C)cc(C)[nH]c2=O)c1C)C1CCOCC1 + NC1CC1c1ccc(-c2cccc(O)c2)cc1	105
NS(=O)(=O)OCC1CC(n2ccc3c(NC4CCc5ccccc54)ncnc32)CC1O (stereo not given) + NC1CC1c1ccc(-c2cccc(O)c2)cc1	31.3

Attention now turns to another entry.
viability, T/C for Nc1ccn(C2OC(CO)C(O)C2(F)F)c(=O)n1 (stereo not given) + NC1CCC(NC2CC2c2ccccc2)CC1 is 56.4

---

Tested on: 171881-019-R-J1-PDC complex spheroid viability
Assay: Anticancer human tumor 171881-019-R-J1-PDC cell line growth inhibition;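 also: spheroids exposed to agents for 7 days after 3 days growth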
Conditions: second compound 10 µM; first compound 0.0949 µM; active compounds read low
Rule: measured viability, T/C below 70% gets 1 (yes); anything equal to or greater than 70% gets 0 (no).

Nc1ccccc1NC(=O)c1ccc(CNC(=O)OCc2cccnc2)cc1 + NC1CC1c1ccc(-c2cccc(O)c2)cc1	0 (no)

Ask: In plain terms, does NS(=O)(=O)OCC1CC(n2ccc3c(NC4CCc5ccccc54)ncnc32)CC1O (centres undefined) + NC1CCC(NC2CC2c2ccccc2)CC1 come in under 70% for viability, T/C?
Reply: 1 (yes)

Ask: Is 70% strictly greater than the compound's reported viability, T/C? compound: Nc1ccccc1NC(=O)c1ccc(CNC(=O)OCc2cccnc2)cc1 + NC1CCC(NC2CC2c2ccccc2)CC1
Reply: 0 (no)

Ask: Decide: viability, T/C of CCc1c2c(nc3ccc(O)cc13)-c1cc3c(c(=O)n1C2)COC(=O)[C@]3(O)CC + NC1CC1c1ccc(-c2cccc(O)c2)cc1 strictly below 70%?
Reply: 1 (yes)

Ask: Hello, I'm reviewing records and need to know if viability, T/C of NS(=O)(=O)OCC1CC(n2ccc3c(NC4CCc5ccccc54)ncnc32)CC1O (centres undefined) + NC1CC1c1ccc(-c2cccc(O)c2)cc1 is below 70%. Could you check?
Reply: 1 (yes)

Ask: viability, T/C strictly < 70% for this compound? CCc1c2c(nc3ccc(O)cc13)-c1cc3c(c(=O)n1C2)COC(=O)[C@]3(O)CC + NC1CCC(NC2CC2c2ccccc2)CC1
Reply: 1 (yes)

Ask: hey, is viability, T/C for CCN(c1cc(-c2ccc(CN3CCOCC3)cc2)cc(C(=O)NCc2c(C)cc(C)[nH]c2=O)c1C)C1CCOCC1 + NC1CC1c1ccc(-c2cccc(O)c2)cc1 lower than 70% or not?
Reply: 0 (no)

---

Tested on: 171881-019-R-J1-PDC complex spheroid viability
Assay: Anticancer human tumor 171881-019-R-J1-PDC cell line growth inhibition;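 also: spheroids exposed to agents for 7 days after 3 days growth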
Conditions: second compound 10 µM; first compound 0.000949 µM; active compounds read low
# note: boundary value 80% maps to 0 (no); viability, T/C below it maps to 1 (yes)

Solved cases below.
Nc1ncn(C2CC(O)C(CO)S2)c(=O)n1 (stereo unspecified) + NC1CC1c1ccc(-c2cccc(O)c2)cc1	1 (yes)
Nc1ncn(C2CC(O)C(CO)S2)c(=O)n1 (stereo unspecified) + NC1CCC(NC2CC2c2ccccc2)CC1	0 (no)
Nc1ccn(C2OC(CO)C(O)C2(F)F)c(=O)n1 (stereo unspecified) + NC1CC1c1ccc(-c2cccc(O)c2)cc1	1 (yes)
CCc1c2c(nc3ccc(O)cc13)-c1cc3c(c(=O)n1C2)COC(=O)[C@]3(O)CC + NC1CCC(NC2CC2c2ccccc2)CC1	0 (no)
CCc1c2c(nc3ccc(O)cc13)-c1cc3c(c(=O)n1C2)COC(=O)[C@]3(O)CC + NC1CC1c1ccc(-c2cccc(O)c2)cc1	1 (yes)

Moving on to the next molecule.
Ask: Below 80% on viability, T/C? Entry Nc1ccn(C2OC(CO)C(O)C2(F)F)c(=O)n1 (stereo unspecified) + NC1CCC(NC2CC2c2ccccc2)CC1
Reply: 0 (no)

---

Tested on: 171881-019-R-J1-PDC complex spheroid viability
Assay: Anticancer human tumor 171881-019-R-J1-PDC cell line growth inhibition;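 also: spheroids exposed to agents for 7 days after 3 days growth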
Settings: second compound 10 µM; first compound 0.00949 µM; active compounds read low
Record form. Attribute: viability, T/C. Fill in for each entry.

The cases that follow already have their viability, T/C on record.
CCN(c1cc(-c2ccc(CN3CCOCC3)cc2)cc(C(=O)NCc2c(C)cc(C)[nH]c2=O)c1C)C1CCOCC1 + NC1CCC(NC2CC2c2ccccc2)CC1	80.4%
O=C(C=Cc1cccc(S(=O)(=O)Nc2ccccc2)c1)NO + NC1CC1c1ccc(-c2cccc(O)c2)cc1	77%
Nc1ccccc1NC(=O)c1ccc(CNC(=O)OCc2cccnc2)cc1 + NC1CC1c1ccc(-c2cccc(O)c2)cc1	88%
COc1cc(C2c3cc4c(cc3C(OC3OC5COC(C)OC5C(O)C3O)C3COC(=O)C23)OCO4)cc(OC)c1O (configuration not stated) + NC1CCC(NC2CC2c2ccccc2)CC1	80.9%
Nc1ncn(C2CC(O)C(CO)S2)c(=O)n1 (configuration not stated) + NC1CC1c1ccc(-c2cccc(O)c2)cc1	81.3%

# return viability, T/C for each item in the list
1. NS(=O)(=O)OCC1CC(n2ccc3c(NC4CCc5ccccc54)ncnc32)CC1O (configuration not stated) + NC1CCC(NC2CC2c2ccccc2)CC1
2. CCN(c1cc(-c2ccc(CN3CCOCC3)cc2)cc(C(=O)NCc2c(C)cc(C)[nH]c2=O)c1C)C1CCOCC1 + NC1CC1c1ccc(-c2cccc(O)c2)cc1
3. Nc1ccn(C2OC(CO)C(O)C2(F)F)c(=O)n1 (configuration not stated) + NC1CC1c1ccc(-c2cccc(O)c2)cc1

Reply:
1. 94.6%
2. 78.5%
3. 52.4%

Report viability, T/C for every entry below.
1. NS(=O)(=O)OCC1CC(n2ccc3c(NC4CCc5ccccc54)ncnc32)CC1O (configuration not stated) + NC1CC1c1ccc(-c2cccc(O)c2)cc1
2. COc1cc(C2c3cc4c(cc3C(OC3OC5COC(C)OC5C(O)C3O)C3COC(=O)C23)OCO4)cc(OC)c1O (configuration not stated) + NC1CC1c1ccc(-c2cccc(O)c2)cc1
3. O=C(C=Cc1cccc(S(=O)(=O)Nc2ccccc2)c1)NO + NC1CCC(NC2CC2c2ccccc2)CC1
4. Nc1ncn(C2CC(O)C(CO)S2)c(=O)n1 (configuration not stated) + NC1CCC(NC2CC2c2ccccc2)CC1

Reply:
["45.1%", "84.3%", "84.1%", "98.8%"]

---

System: 171881-019-R-J1-PDC complex spheroid viability
Assay: Anticancer human tumor 171881-019-R-J1-PDC cell line growth inhibition;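 also: spheroids exposed to agents for 7 days after 3 days growth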
Conditions: second compound 0.1 µM; first compound 0.949 µM; active compounds read low
Kindly supply the reported viability, T/C values for the records listed here.
Numbers only, in %.

// known answers, use as guide
Nc1ccccc1NC(=O)c1ccc(CNC(=O)OCc2cccnc2)cc1 + NC1CCC(NC2CC2c2ccccc2)CC1	2.1
CCN(c1cc(-c2ccc(CN3CCOCC3)cc2)cc(C(=O)NCc2c(C)cc(C)[nH]c2=O)c1C)C1CCOCC1 + NC1CCC(NC2CC2c2ccccc2)CC1	74.1
O=C(C=Cc1cccc(S(=O)(=O)Nc2ccccc2)c1)NO + NC1CCC(NC2CC2c2ccccc2)CC1	10.8
NS(=O)(=O)OCC1CC(n2ccc3c(NC4CCc5ccccc54)ncnc32)CC1O (stereo not given) + NC1CC1c1ccc(-c2cccc(O)c2)cc1	27.1
Nc1ccccc1NC(=O)c1ccc(CNC(=O)OCc2cccnc2)cc1 + NC1CC1c1ccc(-c2cccc(O)c2)cc1	8.16

For the 5 compounds below, give their viability, T/C values.
1. NS(=O)(=O)OCC1CC(n2ccc3c(NC4CCc5ccccc54)ncnc32)CC1O (stereo not given) + NC1CCC(NC2CC2c2ccccc2)CC1
2. COc1cc(C2c3cc4c(cc3C(OC3OC5COC(C)OC5C(O)C3O)C3COC(=O)C23)OCO4)cc(OC)c1O (stereo not given) + NC1CCC(NC2CC2c2ccccc2)CC1
3. CCN(c1cc(-c2ccc(CN3CCOCC3)cc2)cc(C(=O)NCc2c(C)cc(C)[nH]c2=O)c1C)C1CCOCC1 + NC1CC1c1ccc(-c2cccc(O)c2)cc1
4. COc1cc(C2c3cc4c(cc3C(OC3OC5COC(C)OC5C(O)C3O)C3COC(=O)C23)OCO4)cc(OC)c1O (stereo not given) + NC1CC1c1ccc(-c2cccc(O)c2)cc1
5. O=C(C=Cc1cccc(S(=O)(=O)Nc2ccccc2)c1)NO + NC1CC1c1ccc(-c2cccc(O)c2)cc1

Reply:
1: 27.9; 2: 33.2; 3: 68; 4: 48.3; 5: 1.03
